- TARGET_OF_ASSAY: kinase panel containing either 386 or 392 distinct kinases
- RUN_DESCRIPTION: Kinase selectivity score S10 from competition binding panel
- RUN_CONDITIONS: compounds at 10 μM; 386 or 392 distinct kinases
PROPERTY_NAME: Kinase specificity S(10)

Worked examples, 6 compounds total:
O[C@@H]1CCCC[C@H]1Nc1nc2ccc(Cn3cnc4cc(CN5CCOCC5)cnc43)cc2s1; A (A≤0.01)
OC[C@@H](Nc1nc2ccc(Cn3cnc4cccnc43)cc2s1)C1CCCCC1; C (C>0.02)
COc1cc2c(cc1Br)ncn2Cc1ccc2nc(N[C@@H]3c4ccccc4C[C@H]3O)sc2c1; A (A≤0.01)
COc1cc2ncn(Cc3ccc4nc(N[C@@H]5CCCC[C@H]5O)sc4c3)c2cc1C#N; B (0.01<B≤0.02)
CSCc1cnc2c(c1)ncn2Cc1ccc2nc(N[C@@H]3CCCC[C@H]3O)sc2c1; C (C>0.02)
OC[C@@H]1CCCC[C@H]1Nc1nc2ccc(Cn3cnc4cccnc43)cc2s1; A (A≤0.01)

List reported Kinase specificity S(10) for each of these compounds:
1. COc1cc2c(cc1C#N)ncn2Cc1ccc2nc(N[C@@H]3CCCC[C@H]3O)sc2c1
2. O[C@@H]1CCCC[C@H]1Nc1nc2ccc(Cn3cnc4cc(Br)ccc43)cc2s1

A)
1: B (0.01<B≤0.02); 2: A (A≤0.01)
